meta.source: patent US6596687B1

- experimentalSystem: T1, VLA-4 (alpha4beta1 integrin) (UniProt P13612 34-1032; P05556 21-798, limits assumed)
- T1 construct: whole, on cells; also called very late antigen-4; CD49d/CD29
- T1 sequence (P13612 34-1032 limits assumed, chain 1 of 2): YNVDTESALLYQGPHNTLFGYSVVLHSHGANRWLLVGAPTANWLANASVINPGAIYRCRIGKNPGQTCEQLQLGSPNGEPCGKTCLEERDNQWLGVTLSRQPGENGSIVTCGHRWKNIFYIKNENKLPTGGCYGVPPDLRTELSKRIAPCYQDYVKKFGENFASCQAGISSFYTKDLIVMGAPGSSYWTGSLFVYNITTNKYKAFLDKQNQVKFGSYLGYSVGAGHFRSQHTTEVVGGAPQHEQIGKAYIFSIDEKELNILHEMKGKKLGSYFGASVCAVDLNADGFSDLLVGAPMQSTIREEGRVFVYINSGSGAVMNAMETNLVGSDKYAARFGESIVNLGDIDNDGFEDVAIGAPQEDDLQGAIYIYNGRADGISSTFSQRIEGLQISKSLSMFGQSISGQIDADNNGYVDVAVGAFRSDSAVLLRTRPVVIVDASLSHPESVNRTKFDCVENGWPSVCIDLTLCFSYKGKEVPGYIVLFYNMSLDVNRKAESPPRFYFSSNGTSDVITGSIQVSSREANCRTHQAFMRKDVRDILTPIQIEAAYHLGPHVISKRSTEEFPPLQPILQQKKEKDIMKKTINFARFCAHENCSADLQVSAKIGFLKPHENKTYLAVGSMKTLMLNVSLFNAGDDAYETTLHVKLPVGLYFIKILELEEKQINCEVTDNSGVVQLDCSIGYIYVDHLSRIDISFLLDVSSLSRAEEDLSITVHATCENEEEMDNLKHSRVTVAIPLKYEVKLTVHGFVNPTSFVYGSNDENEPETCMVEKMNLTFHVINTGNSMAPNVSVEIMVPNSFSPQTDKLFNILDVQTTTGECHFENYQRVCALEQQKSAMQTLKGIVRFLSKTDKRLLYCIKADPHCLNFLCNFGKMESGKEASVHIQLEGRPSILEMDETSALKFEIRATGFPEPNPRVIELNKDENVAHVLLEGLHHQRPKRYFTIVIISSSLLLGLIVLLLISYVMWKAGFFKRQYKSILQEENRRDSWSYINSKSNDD
- T1 sequence (P05556 21-798 limits assumed, chain 2 of 2): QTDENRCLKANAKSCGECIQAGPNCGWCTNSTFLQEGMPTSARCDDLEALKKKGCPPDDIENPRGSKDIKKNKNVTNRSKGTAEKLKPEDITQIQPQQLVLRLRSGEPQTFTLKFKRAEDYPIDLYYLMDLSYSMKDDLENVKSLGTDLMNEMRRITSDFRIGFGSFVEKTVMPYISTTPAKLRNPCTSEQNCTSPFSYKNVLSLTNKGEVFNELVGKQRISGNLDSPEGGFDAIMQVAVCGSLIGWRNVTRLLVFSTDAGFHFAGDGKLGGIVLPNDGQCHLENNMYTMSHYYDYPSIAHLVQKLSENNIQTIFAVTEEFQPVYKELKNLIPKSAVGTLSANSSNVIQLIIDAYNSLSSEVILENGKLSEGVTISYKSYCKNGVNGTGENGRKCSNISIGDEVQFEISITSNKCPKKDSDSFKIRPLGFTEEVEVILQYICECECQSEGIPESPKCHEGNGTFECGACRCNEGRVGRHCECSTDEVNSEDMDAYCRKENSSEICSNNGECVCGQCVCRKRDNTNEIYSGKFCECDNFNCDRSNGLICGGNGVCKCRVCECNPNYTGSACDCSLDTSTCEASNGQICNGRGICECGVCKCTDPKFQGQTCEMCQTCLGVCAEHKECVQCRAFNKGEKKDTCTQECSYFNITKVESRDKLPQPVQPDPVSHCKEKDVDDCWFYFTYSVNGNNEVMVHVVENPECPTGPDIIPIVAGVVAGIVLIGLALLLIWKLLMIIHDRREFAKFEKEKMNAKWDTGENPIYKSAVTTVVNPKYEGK
- measurementDescription: Ramos/BSA-CS1 adhesion inhibition
* marks the point of attachment. 2‑MPUPA = 4-(N′-(2-methylphenyl)urea)phenylacetyl, Cc1ccccc1NC(=O)Nc1ccc(CC(=O)*)cc1; Ahx = NCCCCCC(=O)O
Assign IC50 to each entry below.

>>> measurement("LPVD (HELM PEPTIDE1{[Cc1ccccc1NC(=O)Nc1ccc(CC(=O)[*:2])cc1].L.P.V.D}$$$$V2.0; SMILES Cc1ccccc1NC(=O)Nc1ccc(CC(=O)N[C@@H](CC(C)C)C(=O)N2CCC[C@H]2C(=O)N[C@H](C(=O)N[C@@H](CC(=O)O)C(=O)O)C(C)C)cc1) [Compound 341]")
"> 10 µM"

Next binder, IC50 to be filled in.
Name the recorded IC50 for {2‑MPUPA}-K(Ahx)DVP-OH [Compound 202] .
0.05 to 10 µM
